Where do these numbers come from? They come from ChEMBL document CHEMBL1128663.

log10(IC50) listing for selected molecules.
Molecular target: Cholesteryl ester transfer protein (Homo sapiens)
Sequence (P11597 whole entry): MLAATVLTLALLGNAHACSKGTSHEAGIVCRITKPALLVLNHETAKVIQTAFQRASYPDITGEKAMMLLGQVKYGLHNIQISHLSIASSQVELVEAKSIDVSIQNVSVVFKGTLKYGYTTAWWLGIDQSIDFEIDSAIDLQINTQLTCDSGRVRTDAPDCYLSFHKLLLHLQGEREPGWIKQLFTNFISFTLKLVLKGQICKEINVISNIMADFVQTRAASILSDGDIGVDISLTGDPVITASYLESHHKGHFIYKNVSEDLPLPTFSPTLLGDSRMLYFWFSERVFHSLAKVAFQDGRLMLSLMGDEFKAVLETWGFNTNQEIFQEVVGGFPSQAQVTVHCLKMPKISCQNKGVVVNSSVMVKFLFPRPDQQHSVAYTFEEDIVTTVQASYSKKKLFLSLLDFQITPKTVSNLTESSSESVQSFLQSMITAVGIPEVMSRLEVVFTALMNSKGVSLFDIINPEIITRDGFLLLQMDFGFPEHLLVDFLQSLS
Test: Compound was tested for Cholesteryl ester transfer protein (CETP) inhibition by CETP-SPA assay
endpoint_name: log10(IC50) (log10 of the value in µM)

>  <molecule>
CC1(C)CCC[C@]2(C)[C@H]3C=C4C=C(O)C(=O)C=C4O[C@@]3(C)CC[C@@H]12

>  <assayed_target>
Cholesteryl ester transfer protein (Homo sapiens)

>  <log10(IC50)>
0.78

$$$$
>  <molecule>
COc1ccc(O)c(O)c1CC1=C(C)CCC2C(C)(C)CCC[C@]12C (stereo not given in full)

>  <assayed_target>
Cholesteryl ester transfer protein (Homo sapiens)

>  <log10(IC50)>
0.70

$$$$
>  <molecule>
C[C@H]1CCC2C(C)(C)CCC[C@]23Oc2ccc(O)cc2C[C@]13C (stereo not given in full)

>  <assayed_target>
Cholesteryl ester transfer protein (Homo sapiens)

>  <log10(IC50)>
1.34

$$$$
>  <molecule>
CC1(C)CCC[C@]2(C)C3C=C4C(=CC(=O)C(O)=C4Cl)OC3CC[C@@]12C (stereo not given in full)

>  <assayed_target>
Cholesteryl ester transfer protein (Homo sapiens)

>  <log10(IC50)>
-0.52

$$$$
>  <molecule>
COc1ccc(O)c2c1C[C@]1(C)[C@@H](C)CCC3C(C)(C)CCC[C@]31O2 (stereo not given in full)

>  <assayed_target>
Cholesteryl ester transfer protein (Homo sapiens)

>  <log10(IC50)>
1.66

$$$$
>  <molecule>
C[C@]12CC(=O)[C@@H](O)[C@](C)(CO)[C@@H]1CC[C@@]1(C)c3cocc3CC[C@H]21

>  <assayed_target>
Cholesteryl ester transfer protein (Homo sapiens)

>  <log10(IC50)>
2.29

$$$$
>  <molecule>
COc1ccc(O)c(O)c1/C=C1\[C@@H](C)CCC2C(C)(C)CCC[C@]12C (stereo not given in full)

>  <assayed_target>
Cholesteryl ester transfer protein (Homo sapiens)

>  <log10(IC50)>
0.70

$$$$
>  <molecule>
C=C1CCC[C@H]2[C@](C)(CC3=C(O)C(=O)C=C(OC)C3=O)[C@@H](C)CC[C@]12C

>  <assayed_target>
Cholesteryl ester transfer protein (Homo sapiens)

>  <log10(IC50)>
2.00

$$$$
>  <molecule>
CC1=CCC[C@H]2[C@](C)(Cc3cc(O)ccc3O)[C@@H](C)CC[C@]12C

>  <assayed_target>
Cholesteryl ester transfer protein (Homo sapiens)

>  <log10(IC50)>
1.40

$$$$
